test system: B-CLL cells; assay: Cytotoxicity on B-CLL cells from CLL patients (MTS assay); conditions: read-out: EC50 (cytotoxicity of COG compounds on B-CLL cells); isolated B-CLL cells, 72 hours, MTS assay
Non-standard residues stand in square brackets, D forms with d. Residues, ends and D or L forms follow the SMILES beside them. Aib = CC(C)(N)C(=O)O
assayMetric: EC50 (µM)
Just the number in µM, nothing appended.

-- ask Report measured EC50; entry is CC(=O)N[C@@H](C)C(=O)N[C@@H](CO)C(=O)NC(C)(C)C(=O)N[C@@H](CC(C)C)C(=O)N[C@@H](CCCNC(=N)N)C(=O)N[C@@H](CCCCN)C(=O)N[C@@H](CC(C)C)C(=O)NC(C)(C)C(=O)N[C@@H](CCCCN)C(=O)N[C@@H](CCCNC(=N)N)C(=O)N[C@@H](CC(C)C)C(=O)N[C@@H](CC(C)C)C(N)=O [COG1410, Ac-AS-Aib-LRKL-Aib-KRLL-NH2] (Ac-AS[Aib]LRKL[Aib]KRLL-NH2)
-- reply 5.7

All figures here come from patent US20110166079A1.
